Recorded values, source patent US20200339690A1.

# experimental target: T1, human LILRA6 (human, UniProt Q6PI73 24-481)
# T1 construct: Over-expressed on CHO-s cells; also called hLILRA6
# T1 sequence (Q6PI73 24-481 limits assumed): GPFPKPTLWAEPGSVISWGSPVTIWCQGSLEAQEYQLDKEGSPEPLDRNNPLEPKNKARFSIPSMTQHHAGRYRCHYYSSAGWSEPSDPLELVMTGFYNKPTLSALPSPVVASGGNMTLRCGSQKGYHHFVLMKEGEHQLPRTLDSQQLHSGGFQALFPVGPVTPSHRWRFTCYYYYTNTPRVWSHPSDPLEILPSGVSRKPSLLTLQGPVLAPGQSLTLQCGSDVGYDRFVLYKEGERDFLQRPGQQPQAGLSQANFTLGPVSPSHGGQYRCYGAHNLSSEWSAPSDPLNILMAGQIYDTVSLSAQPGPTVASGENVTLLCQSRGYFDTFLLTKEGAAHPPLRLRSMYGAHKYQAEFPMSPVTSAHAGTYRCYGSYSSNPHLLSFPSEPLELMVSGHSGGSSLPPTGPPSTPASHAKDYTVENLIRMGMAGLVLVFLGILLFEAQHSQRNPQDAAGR
# method notes: flow cytometry, LILRA6 CHOs
parameter: binding (fold over iso)
State the value, then name its unit.

Query: Which binding (fold over iso) reading was recorded for the binder J-17 (antibody, human IgG4 S228P, kappa, V domains shown, Human IgG4 chimera of murine origin; also called J-17.h) VH: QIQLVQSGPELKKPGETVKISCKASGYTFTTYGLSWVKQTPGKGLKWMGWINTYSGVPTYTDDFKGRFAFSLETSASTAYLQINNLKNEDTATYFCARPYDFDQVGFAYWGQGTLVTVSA VL: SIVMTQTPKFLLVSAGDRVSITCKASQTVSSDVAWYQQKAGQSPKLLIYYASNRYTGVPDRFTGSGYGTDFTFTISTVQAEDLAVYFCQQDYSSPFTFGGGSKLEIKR ?
Response: 0.94 fold over iso
